- Target system: D3 receptor (Homo sapiens (Human), UniProt P35462)
- Sequence (P35462 whole entry): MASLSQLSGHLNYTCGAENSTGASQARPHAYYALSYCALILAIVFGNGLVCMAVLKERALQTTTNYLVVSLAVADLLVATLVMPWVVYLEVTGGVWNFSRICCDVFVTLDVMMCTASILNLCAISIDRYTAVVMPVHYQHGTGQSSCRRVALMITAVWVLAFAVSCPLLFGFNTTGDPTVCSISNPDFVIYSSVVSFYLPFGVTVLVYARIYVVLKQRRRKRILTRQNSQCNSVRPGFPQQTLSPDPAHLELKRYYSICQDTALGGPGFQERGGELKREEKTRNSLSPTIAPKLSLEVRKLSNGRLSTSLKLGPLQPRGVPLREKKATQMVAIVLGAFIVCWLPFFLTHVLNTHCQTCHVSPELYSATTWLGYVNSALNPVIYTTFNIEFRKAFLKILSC
- Method description: Radioligand binding assay ([3H]-spiperone) on membranes of HEK293 EBNA cells expressing human D3 receptor
- Measurement context: read-out: D3 Ki; human receptor in HEK293 EBNA cells; 0.5 nM [3H]-spiperone
Listing: Ki of selected compounds

Here's what some known entries look like.
| Compound | Ki |
| --- | --- |
| O=C(N[C@H]1CC[C@H](CCN2CCC(c3cccc4c3OCO4)CC2)CC1)C1CCS(=O)(=O)C1 (stereo partly drawn) | 16.3 nM |
| O=C(Nc1ccc(Cl)cc1)N[C@H]1CC[C@H](CCN2CCC(c3cccc4c3OCO4)CC2)CC1 | 23.6 nM |
| O=C(CC1COCCO1)N[C@H]1CC[C@H](CCN2CCC(c3cccc4c3OCO4)CC2)CC1 (stereo partly drawn) | 8.88 nM |
| O=C(N[C@H]1CC[C@H](CCN2CCC(c3cccc4c3OCO4)CC2)CC1)C1CCOCC1 | 13.8 nM |
| Cn1cnc(S(=O)(=O)N[C@H]2CC[C@H](CCN3CCC(c4cccc5c4OCO5)CC3)CC2)c1 | 12.4 nM |

Determine its reported Ki: O=C(CO)N[C@H]1CC[C@H](CCN2CCC(c3cccc4c3OCO4)CC2)CC1
9.09 nM

Determine its reported Ki: CCC(C)C(=O)N[C@H]1CC[C@H](CCN2CCC(c3cccc4c3OCO4)CC2)CC1 (stereo partly drawn)
13.8 nM

Determine its reported Ki: O=C(N[C@H]1CC[C@H](CCN2CCC(c3cccc4c3OCO4)CC2)CC1)C1COc2ccccc2C1 (stereo partly drawn)
6.73 nM

* * *

- Target system: D3 receptor (Homo sapiens (Human), UniProt P35462)
- Method description: Radioligand binding assay ([3H]-spiperone) on membranes of HEK293 EBNA cells expressing human D3 receptor
- Measurement context: read-out: D3 Ki; human receptor in HEK293 EBNA cells; 0.5 nM [3H]-spiperone
Rule for this label: Satisfied means Ki is less than 5 nM; Not satisfied means Ki is at least 5 nM.

| Compound | Cat |
| --- | --- |
| CN1CCC(C(=O)N[C@H]2CC[C@H](CCN3CCC(c4cccc5c4OCO5)CC3)CC2)CC1 [Example 61] | Not satisfied |
| C[C@@H](O)C(=O)N[C@H]1CC[C@H](CCN2CCC(c3cccc4c3OCO4)CC2)CC1 [Example 64] | Not satisfied |
| O=C(C[C@H]1CCCOC1)N[C@H]1CC[C@H](CCN2CCC(c3cccc4c3OCO4)CC2)CC1 [Example 43] | Not satisfied |
| Cc1cc(CC(=O)N[C@H]2CC[C@H](CCN3CCC(c4cccc5c4OCO5)CC3)CC2)on1 [Example 19] | Satisfied |

Field: below-cutoff. Rule: recorded Ki strictly less than 5 nM. Subject: N#CCC(=O)N[C@H]1CC[C@H](CCN2CCC(c3cccc4c3OCO4)CC2)CC1 [Example 20]
Satisfied

Field: below-cutoff. Rule: recorded Ki strictly less than 5 nM. Subject: O=C(N[C@H]1CC[C@H](CCN2CCC(c3cccc4c3OCO4)CC2)CC1)C1(C(F)(F)F)CC1 [Example 50]
Not satisfied

Field: below-cutoff. Rule: recorded Ki strictly less than 5 nM. Subject: O=C(N[C@H]1CC[C@H](CCN2CCC(c3cccc4c3OCO4)CC2)CC1)C(F)(F)F [Example 73]
Not satisfied
